target: Protein skinhead-1 (Caenorhabditis elegans); assay type: functional
Sequence (P34707 whole entry): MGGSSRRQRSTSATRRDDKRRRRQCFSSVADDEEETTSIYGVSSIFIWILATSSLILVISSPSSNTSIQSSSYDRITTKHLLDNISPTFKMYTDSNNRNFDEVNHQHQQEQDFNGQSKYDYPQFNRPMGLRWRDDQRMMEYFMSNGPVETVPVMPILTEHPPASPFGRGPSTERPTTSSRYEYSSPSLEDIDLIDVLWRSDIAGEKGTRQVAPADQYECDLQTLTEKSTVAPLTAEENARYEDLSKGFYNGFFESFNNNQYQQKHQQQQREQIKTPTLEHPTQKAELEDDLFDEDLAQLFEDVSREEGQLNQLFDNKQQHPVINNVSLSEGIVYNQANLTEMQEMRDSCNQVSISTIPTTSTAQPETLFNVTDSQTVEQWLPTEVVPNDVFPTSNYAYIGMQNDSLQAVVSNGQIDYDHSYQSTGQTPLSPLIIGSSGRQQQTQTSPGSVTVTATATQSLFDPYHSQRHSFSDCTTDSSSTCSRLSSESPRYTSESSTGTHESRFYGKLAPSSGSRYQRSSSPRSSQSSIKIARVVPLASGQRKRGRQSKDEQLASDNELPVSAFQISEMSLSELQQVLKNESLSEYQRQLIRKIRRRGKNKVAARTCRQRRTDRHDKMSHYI
The source made the active and inactive calls.
Labels: label 1 (active), label 0 (inactive)

compound	class
O=C1C(=Cc2ccccn2)CCc2ccccc21	label 1
c1ccc2c(c1)CCN(C1=Nc3cccc4cccc1c34)C2	label 0
CC1(C(=O)Nc2cnc3ccccc3c2)CCN1C(=O)c1ccccc1CCc1ccccc1 (stereo not given)	label 0
c1ccc(-c2ccc(-c3nc(-c4ccccn4)no3)cc2)cc1	label 0
CC(C)(C)NC(=O)CN(C(=O)CCC(=O)Nc1nccs1)c1cccc(C(F)(F)F)c1	label 0
c1ccc(C2(Cn3ccc4ccccc43)OCCO2)cc1	label 0
CCCCCNC(=O)c1ccccc1SC	label 0
O=C(/C=C/c1cccs1)c1ccc(N2CCOCC2)cc1	label 0
O=C(Nc1nc2c(F)cc(F)cc2s1)c1ccccn1	label 0
Cc1ccc(OCCCCn2cnc3ccccc32)c(C)c1	label 0

----------
Overview of reported EC50 across a group of compounds:
assay: inhibitors of intracellular T. cruzi replication, confirmation, NIH3T3 host cells, beta-gal luminescence (AID 2044); format: functional, cell-based;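 note: intracellular parasites grown in NIH/3T3 mouse fibroblasts as host cells; luminescent beta-galactosidase reporter signal from transgenic T. cruzi replicating inside host cells; inhibitors lower the luminescence signal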
Activity calls are given as the source filed them.

compound	EC50
CCN(Cc1ccc(O)cc1)CC1CCCN(CCc2cccc(F)c2)C1 (centres undefined)	690 nM (active)
O=C(Nc1ccc(N2CCCCC2)cc1)c1cc([N+](=O)[O-])cc([N+](=O)[O-])c1	411 nM (active)
CN1CCN(CC2(O)CCN(S(=O)(=O)c3ccc(Cl)cc3)CC2)CC1	1110 nM (active)
O=C(OCc1ccccc1)c1cn(-c2ccccc2)nc1-c1ccncc1	1140 nM (active)
Cc1ccc(C=Cc2ccc(N(C)C)cc2)[n+](C)c1	232 nM (active)
Cc1ccc2sc(N3CCN(C(=O)c4ccc([N+](=O)[O-])o4)CC3)nc2c1C	119 nM (active)
COCc1cc([S+]([O-])c2ccc(Cl)cc2)nc(C)n1 (centres undefined)	1780 nM (active)
Cn1c(SCC(=O)N2c3ccccc3Sc3ccccc32)nc2ccccc21	2770 nM (active)
Cc1c(C(=O)NCC2COc3ccccc3O2)oc2ccc(S(=O)(=O)N3CC(C)CC(C)C3)cc12 (centres undefined)	1790 nM (active)

----------
experiment: A549 cell cytotoxicity, dose response, cytotoxicity control, plate reader, cherry-pick, antagonist series (AID 743412); assay type: functional, cell-based
The source made the active and inactive calls.
Below, each of the compounds is paired with its reported AC50 value.

compound-structure	AC50
c1ccc(-c2ccc(-c3nc(-c4ccccn4)no3)cc2)cc1	5.48 µM (active)
O=C(Nc1nnc(C2CC2)s1)c1ccccn1	7.92 µM (active)
O=C(Nc1nc2c(F)cc(F)cc2s1)c1ccccn1	2.66 µM (active)
Cn1nc(-c2ccccn2)nc2c(=O)n(C)c(=O)nc1-2	3.15 µM (active)
O=c1c(Cl)c(Cl)cnn1-c1ccccc1	7.52 µM (active)

----------
Target: Ubiquitin-conjugating enzyme E2 N (Homo sapiens);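 note: Dose-response confirmation in a TR-FRET assay detecting UBC13-driven polyubiquitin chain formation, inhibition measured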
Sequence (P61088 whole entry): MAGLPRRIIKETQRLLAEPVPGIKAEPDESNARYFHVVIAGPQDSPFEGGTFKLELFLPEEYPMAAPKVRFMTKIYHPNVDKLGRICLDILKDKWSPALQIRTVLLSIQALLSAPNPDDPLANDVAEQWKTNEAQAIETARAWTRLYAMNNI
Format: functional
Activity calls are given as the source filed them.
# IC50 per entry
observable: IC50

compound	observed
COc1ccccc1NC(=O)c1cc(S(=O)(=O)N2CCCCCC2)ccc1F	10.6 µM (active)
COc1ccccc1NC(=O)c1cc(S(=O)(=O)N2CCC3(CC2)OCCO3)ccc1F	> 20 µM (inactive)
O=C(NNC(=O)c1nn(-c2ccc(F)cc2)ccc1=O)c1ccc(C(F)(F)F)cc1	16.7 µM (active)
CN1CCN(CC(=O)N2CCn3c4c(c5cc(C6CCCCC6)ccc53)CCCC42)CC1 (stereo not given)	> 20 µM (inactive)
COc1ccc(-c2c(-c3ccc(C#N)cc3)oc(=O)c3cc(OC)c(OC)cc23)cc1	> 20 µM (inactive)

----------
target: Heat shock protein HSP 90-alpha (Homo sapiens, UniProt P07900); type: functional, organism-based
Active and inactive are the calls of the source.
# AC50 annotations

compound	AC50
NC(=O)c1ccc(/N=C/c2ccc([N+](=O)[O-])s2)cc1	1.98 µM (active)
CC(C)(C)c1ccc(NC(=O)COC(=O)c2ccc([N+](=O)[O-])s2)cc1	2.85 µM (active)
O=C(NCCCSc1ccccc1)c1cc(Br)ccc1O	4.6 µM (active)
CCc1ccccc1NC(=O)c1cccc(Oc2ccc([N+](=O)[O-])cc2Cl)c1	4.35 µM (active)
CC(=O)OC1C(=O)OCC23CCC4(C)OC4C2OC2CC(OC(=O)C=CC=CC(=O)OCCC1C)C3(C)C21CO1 (configuration not stated)	2.3 µM (active)
Oc1c(I)cc(Cl)c2cccnc12	1.16 µM (active)
CCOc1ccc(C(Nc2cccnc2)c2cc(Cl)c3cccnc3c2O)cc1 (configuration not stated)	2.68 µM (active)

----------
system: BJ; experiment: cells; format: functional, cell-based; details: Homo sapiens
Activity calls are given as the source filed them.
EC50 listing for selected compounds.

compound	target-of-assay	EC50
Cc1ccc(C)c(NS(=O)(=O)c2ccc(OCC(=O)NCc3cccnc3)cc2)c1	BJ	18.1 µM (active)
COC(=O)CSc1nc(N)c2c3c(sc2n1)C(c1ccccc1)SC(c1ccccc1)C3 (stereo not given)	BJ	> 150 µM (inconclusive)
Cc1cccc(N2CCN(C(=S)Nc3ccc4nc(N5CCN(C)CC5)cc(C)c4c3)CC2)c1C	BJ	5.6 µM (inconclusive)
CC(C)c1cc(NC(=O)CCl)on1	BJ	> 150 µM (not active)
CCCCCCCCCCn1c2c(c(=N)c3c1CCC3)CCC2	BJ	2.46 µM (inconclusive)

----------
The entries below come with measured EC50 values attached.
experiment: Luminescence Cell-Based Dose Response HTS to Identify Inhibitors of 5'UTR Stem-Loop Driven Prion Protein mRNA Translation in H4 Neuroglioblastoma Cells. [Related pubchem assays: 1827 (Project Summary), 1813 (Primary HTS)]; assay type: functional
Activity calls are given as the source filed them.

compound	EC50
CCOc1ccc(C(Nc2cccnc2)c2cc(Cl)c3cccnc3c2O)cc1 (stereo unspecified)	13.7 µM (active)
O=C(O)c1ccccc1N/N=C\c1ccnc2ccccc12	11.1 µM (active)
CCC(NCCC1=CCCCC1)=C1C(=O)NC(=O)NC1=O	> 120 µM (not active)
NC(=NOC(=O)c1cc([N+](=O)[O-])ccc1Cl)c1cccnc1	> 120 µM (not active)
Cc1cccc(NC(=O)CSc2nnc(C)c(=O)n2N)c1C	> 120 µM (not active)
CCc1ccc(-c2nc(CSCC(=O)N3CCN(c4ccccn4)CC3)c(C)o2)cc1	15 µM (active)

----------
Target: Streptokinase A (Streptococcus pyogenes serotype M1)
Sequence (P10520 whole entry): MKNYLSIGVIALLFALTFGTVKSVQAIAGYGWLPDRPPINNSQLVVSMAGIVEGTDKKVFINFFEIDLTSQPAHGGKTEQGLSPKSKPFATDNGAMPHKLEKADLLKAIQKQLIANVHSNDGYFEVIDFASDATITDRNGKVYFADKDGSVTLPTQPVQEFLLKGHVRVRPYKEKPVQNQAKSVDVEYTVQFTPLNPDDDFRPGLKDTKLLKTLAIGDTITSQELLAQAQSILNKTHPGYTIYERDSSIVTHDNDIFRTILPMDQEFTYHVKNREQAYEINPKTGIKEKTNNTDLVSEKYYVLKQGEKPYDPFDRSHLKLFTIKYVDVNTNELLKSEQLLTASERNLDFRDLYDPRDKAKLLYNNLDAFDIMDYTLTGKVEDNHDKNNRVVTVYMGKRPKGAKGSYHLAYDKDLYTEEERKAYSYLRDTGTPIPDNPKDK
Test: S. pyogenes streptokinase expression inhibitors, potency, dose response, plasminogen activation absorbance, OD405 (AID 1914);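 note: secreted streptokinase activity via plasminogen activation per viability signal from cell pellet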
Assay type: functional, Streptococcus pyogenes M1 GAS
Active and inactive are the calls of the source.

compound	EC50
CCCCCCCCCCn1c2c(c(=N)c3c1CCC3)CCC2	4.86 µM (active)
Cc1nc2ccccc2n1/N=C/c1ccc([N+](=O)[O-])s1	> 150 µM (not active)
O=C(CSc1ccc2ccccc2n1)N/N=C/c1ccccc1O	> 150 µM (not active)
CCSc1cc(N2CCCC2)nc(-c2ccccc2)n1	66.1 µM (active)
Oc1nc(NN=C(S)NC2CCCCC2)nc2c1C1(CCCC1)Cc1ccccc1-2	16.1 µM (active)
CCc1c(C)c(C#N)c2nc3ccccc3n2c1S	> 150 µM (not active)
Oc1c2cnnc-2nc(SCc2c(F)cccc2F)n1-c1ccc(Cl)cc1	> 150 µM (not active)
CCOC(=O)c1sc(Nc2nc3ccc(OC)cc3s2)cc1C	> 150 µM (not active)
COc1cc(OC)cc(-c2cc3nc4c(c(N5CCN(c6ncccn6)CC5)n3n2)CCCC4)c1	> 150 µM (not active)
COCCn1c(SCC(=O)Nc2ccc(F)cc2)nc2c3ccccc3nc-2c1O	> 150 µM (not active)
Cc1cccc(Nc2nnc(-c3ccc(N4CCOCC4)c([N+](=O)[O-])c3)c3ccccc23)c1	> 150 µM (not active)
O=[N+]([O-])c1cc(Br)c(O)c(/C=N/Nc2nnnn2-c2cccc3ccccc23)c1	> 150 µM (not active)
Cc1nn(-c2ccccc2)c(Cl)c1C1C(C#N)=C(N)OC2=C1C(=O)CCC2 (centres undefined)	> 150 µM (not active)
Cc1ccc(NNC(=O)c2cc(C(C)(C)C)nn2Cc2ccccc2)cc1	29.5 µM (active)
